Every entry's value here was drawn from patent US20100285005A1.

Biological target: human CXCR4 receptor with a C-terminal linear C9 peptide tag (human)
Assay: SPR (Biacore 2000), C9-tagged CXCR4 captured by 1D4 antibody, antibody injected, 4 °C
measured_endpoint: koff

binder | reported_value
Antibody V (antibody, human IgG4 S228P, kappa, F234A L235A, V domains shown) VH: EVQLVESGGGLVQPGGSLRLSCAASGFTSTDYYFSWVRQAPGKGLEWVGFIRHKSKGYTTEYSGSVKGRFTISRDDSKNSLYLQMNSLKTEDTAVYYCAREPITTDPRDYWGQGTLVTVSS VL: DIVMTQSPDSLAVSLGERATINCKSSQSLFNSRTRKKYLAWYQQKPGQPPKLLIYWASKRKSGVPDRFSGSGSGTDFTLTISSLQAEDVAVYYCKQSRFLRAFGQGTKLEIKR | 0.00168 s⁻¹
